- Target or system: ERK5 (Homo sapiens)
- Construct: screened for activity against several kinases in Jurkat cells; endogenous in cells; host or cells: Jurkat cell lysate
- Sequence (Q13164 whole entry): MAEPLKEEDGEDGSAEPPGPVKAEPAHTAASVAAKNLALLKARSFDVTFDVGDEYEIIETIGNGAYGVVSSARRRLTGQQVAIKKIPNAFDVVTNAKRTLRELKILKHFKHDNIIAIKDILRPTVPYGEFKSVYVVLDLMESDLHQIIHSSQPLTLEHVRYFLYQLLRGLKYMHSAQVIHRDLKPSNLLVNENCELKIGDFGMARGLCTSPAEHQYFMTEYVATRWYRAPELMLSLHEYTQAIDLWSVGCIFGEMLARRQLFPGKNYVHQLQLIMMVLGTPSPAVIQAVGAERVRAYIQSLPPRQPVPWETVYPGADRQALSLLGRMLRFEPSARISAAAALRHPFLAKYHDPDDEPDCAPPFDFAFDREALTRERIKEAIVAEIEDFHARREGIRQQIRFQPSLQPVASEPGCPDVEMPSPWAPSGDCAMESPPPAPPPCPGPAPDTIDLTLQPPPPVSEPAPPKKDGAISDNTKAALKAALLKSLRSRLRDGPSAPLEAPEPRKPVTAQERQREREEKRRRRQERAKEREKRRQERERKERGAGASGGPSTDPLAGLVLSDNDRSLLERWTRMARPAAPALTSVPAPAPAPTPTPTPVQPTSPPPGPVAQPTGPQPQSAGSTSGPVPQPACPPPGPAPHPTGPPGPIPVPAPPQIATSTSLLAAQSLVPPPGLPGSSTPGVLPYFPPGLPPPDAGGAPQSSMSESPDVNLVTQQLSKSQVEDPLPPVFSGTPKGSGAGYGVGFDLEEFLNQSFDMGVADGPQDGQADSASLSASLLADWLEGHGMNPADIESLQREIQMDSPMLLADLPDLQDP
- Test protocol: Probe-based (AX9989 acyl phosphate ATP probe) kinase profiling in Jurkat lysate: ERK5
- Assay type: binding
- Study conditions: calculated from percent inhibition of AX9989 labeling and the screening concentration; Jurkat lysate
pIC50: −log10 of the molar value.

[
  {
    "Compound": "CN1C(=O)c2ccccc2N(C)c2cc(N[C@H]3CC[C@H](O)CC3)ncc21",
    "pIC50": "6.30 to 7.00"
  },
  {
    "Compound": "COc1cccnc1Nc1cc2c(cn1)N(C)C(=O)c1ccccc1N2C",
    "pIC50": "< 6.30"
  },
  {
    "Compound": "CCOc1cc(C(=O)N[C@@H]2CCCOC2)ccc1Nc1cc2c(cn1)N(C)C(=O)c1ccccc1N2C",
    "pIC50": "6.30 to 7.00"
  },
  {
    "Compound": "CCOc1cc(C(=O)N[C@H]2CCCOC2)ccc1Nc1cc2c(cn1)N(C)C(=O)c1ccccc1N2C",
    "pIC50": "< 6.30"
  },
  {
    "Compound": "CCOc1cc(C(=O)NCCn2ccnc2)ccc1Nc1cc2c(cn1)N(C)C(=O)c1ccccc1N2C",
    "pIC50": "7.00 to 7.30"
  },
  {
    "Compound": "CCOc1cc(C(=O)N2CCC(N3CCCC3)CC2)ccc1Nc1cc2c(cn1)N(C)C(=O)c1occc1N2C",
    "pIC50": "≥ 7.30"
  },
  {
    "Compound": "CN1C(=O)c2ccccc2N(C)c2cc(Nc3ccc(C(=O)N4CC[C@@H](N(C)C)C4)cc3F)ncc21",
    "pIC50": "≥ 7.30"
  },
  {
    "Compound": "CCOc1cc(C(=O)NC(CO)CO)ccc1Nc1cc2c(cn1)N(C)C(=O)c1ccccc1N2C",
    "pIC50": "6.30 to 7.00"
  },
  {
    "Compound": "CCOc1cc(C(=O)N2CCC(CN3CCOCC3)CC2)ccc1Nc1cc2c(cn1)N(C)C(=O)c1ccccc1N2C",
    "pIC50": "≥ 7.30"
  },
  {
    "Compound": "CN(C)CCn1cc(Nc2cc3c(cn2)N(C)C(=O)c2ccccc2N3C)cn1",
    "pIC50": "6.30 to 7.00"
  },
  {
    "Compound": "CCOc1cc(C(=O)N2CCC(N)C2)ccc1Nc1cc2c(cn1)N(C)C(=O)c1occc1N2C (stereo not shown)",
    "pIC50": "≥ 7.30"
  },
  {
    "Compound": "CCOc1cc(C(=O)NC2CC2)ccc1Nc1cc2c(cn1)N(C)C(=O)c1ccccc1N2C",
    "pIC50": "< 6.30"
  },
  {
    "Compound": "CCOc1cc(C(=O)N2CCCC(O)C2)ccc1Nc1cc2c(cn1)N(C)C(=O)c1ccccc1N2C (stereo not shown)",
    "pIC50": "7.00 to 7.30"
  },
  {
    "Compound": "CCOc1cc(C(=O)NCCN2CCCC2)ccc1Nc1cc2c(cn1)N(C)C(=O)c1ccccc1N2C",
    "pIC50": "6.30 to 7.00"
  },
  {
    "Compound": "CCOc1cc(C(=O)N2CCC(O)CC2)ccc1Nc1cc2c(cn1)N(C)C(=O)c1ccccc1N2C",
    "pIC50": "7.00 to 7.30"
  },
  {
    "Compound": "C=CCN1CCN(C(=O)c2ccc(Nc3cc4c(cn3)N(C)C(=O)c3ccccc3N4C)c(OCC)c2)CC1",
    "pIC50": "≥ 7.30"
  }
]
